tested on: HL-60; experiment: NCI tumour cell line growth inhibition, 48 h
Active and inactive are the calls of the source. Cut-off read from the data, not from the text of the source: active = GI50 up to about 1.1 µM and inactive = higher.
Quantity kind: GI50

> print(dat)
                                   compound  experimental.target       endpoint.value
1  COC(=O)[C@@H]1CS(=O)(=O)C(C(C)C)N1C(C)=O (stereo partly specified)                HL-60   7.19 µM (inactive)
2  O=C(O)CCC(NC(=O)c1ccc(Nc2nc3ccc(C(F)(F)F)cc3nc2-c2ccccc2)cc1)C(=O)O (stereo unspecified)                HL-60  > 100 µM (inactive)
3           Nc1nc(Cl)cc(NCC2(CO)CC(=O)C2)n1                HL-60  > 100 µM (inactive)
4     COC(=O)CCCc1nc2ccccc2nc1/N=N/c1ccccc1                HL-60   2.57 µM (inactive)
5  COc1ccc2c(c1)CC[C@@H]1C2CC[C@]2(C)OC(=O)CCC12 (stereo partly specified)                HL-60  > 100 µM (inactive)

### Prompt Data request, read-out GI50, for OC1(C2(c3ccc(Cl)cc3)CCCC2)c2ccccc2C2=NCCN21 (stereo unspecified)
### Response 14.4 µM (inactive)

### Prompt Data request, read-out GI50, for CC12CCCCC1(C)C2Sc1ccccc1 (stereo unspecified)
### Response 17.5 µM (inactive)

### Prompt Data request, read-out GI50, for COC(=O)[C@@H]1C2OC(C)(C)OC2CN1C(=O)OCc1ccccc1 (stereo partly specified)
### Response > 100 µM (inactive)

### Prompt Data request, read-out GI50, for O=C(CC(C(=O)c1ccc(F)cc1)c1ccsc1)c1cccs1 (stereo unspecified)
### Response 55.2 µM (inactive)

### Prompt Data request, read-out GI50, for CNC(=O)OC(C)CN1c2ccccc2Sc2ccccc21 (stereo unspecified)
### Response 7.69 µM (inactive)

### Prompt Data request, read-out GI50, for O=C(O)CCC1COc2ccccc2O1 (stereo unspecified)
### Response > 10 µM (inactive)
